Target: Wee1 kinase domain (Homo sapiens, UniProt P30291)
Construct: Wee1 kinase domain was purchased from Carna (catalog #05-177); purchased Carna 05-177
Sequence (P30291 299-569 limits assumed): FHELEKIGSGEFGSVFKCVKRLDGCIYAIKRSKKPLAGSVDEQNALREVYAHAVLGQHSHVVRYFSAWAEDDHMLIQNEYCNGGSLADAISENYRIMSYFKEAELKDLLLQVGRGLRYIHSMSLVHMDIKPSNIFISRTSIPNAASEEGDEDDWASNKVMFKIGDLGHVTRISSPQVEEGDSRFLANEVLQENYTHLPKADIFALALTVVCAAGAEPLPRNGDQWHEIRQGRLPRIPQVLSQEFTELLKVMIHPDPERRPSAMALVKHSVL
Assay: Wee1 Kinase Biochemical Assay (ADP-Glo)
Details: class symbols; 1 nM Wee1 enzyme, 15 uM ATP, 4 hours at 25° C.
Description: Wee1 Kinase Biochemical Assay Protocol Wee1 kinase domain was purchased from Carna (catalog #05-177). Wee1 kinase activity was determined with Poly(Lys,Tyr 4:1) hydrobromide as a substrate (Sigma-Aldrich) and by measuring ADP production using the ADP-Glo Kinase Assay kit (Promega) following the manufacturer's instructions. […] The ADP-Glo signal was measured using the Envision plate reader and the percentage inhibition of kinase activity calculated for each inhibitor tested. […]
For each entry below, report its IC50 value.

Examples with answers:
CN1CC[C@H]2CN(c3ccc(Nc4ncc5c(n4)N(c4cccc(N6CCOC6=O)n4)[C@@H]4CC(C)(C)OC[C@]54C)cc3)C[C@H]21 = < 10 nM
CNCc1cccc(N2c3nc(Nc4cnnc(C)c4)ncc3[C@@]3(C)COC(C)(C)C[C@@H]23)n1 (single isomer, unassigned) = 10 to 100 nM
CN1CC[C@@](C)(c2ccc(Nc3ncc4c(n3)N(c3cccc(N5CCOC5=O)n3)[C@@H]3CC(C)(C)OC[C@]43C)cc2)C1 = < 10 nM
CC1(C)C[C@@H]2N(c3cccc(N4CCOC4=O)n3)c3nc(Nc4ccc([C@H]5CNCC5(F)F)cc4)ncc3[C@]2(C)CO1 = 100 to 1000 nM
CN1C[C@@H]2CN(c3ccc(Nc4ncc5c(n4)N(c4cccc(C(C)(C)O)n4)[C@@H]4CC(C)(C)OC[C@]54C)cc3)C[C@@H]2C1 (single isomer, unassigned) = < 10 nM

Would you mind listing IC50 for each of the following compounds?
1. CN1CC[C@H](c2ccc(Nc3ncc4c(n3)N(c3cccc(N5CCOC5=O)n3)[C@@H]3CC(C)(C)OC[C@]43C)cc2)C1 (single isomer, unassigned)
2. CN1CCC(c2ccc(Nc3ncc4c(n3)N(c3cccc(N=S(C)(C)=O)c3)[C@H]3CC(C)(C)OC[C@@]43C)cn2)CC1
3. CN1C[C@@H]2C[C@H]1CN2c1ccc(Nc2ncc3c(n2)N(c2cccc(N4CCOC4=O)n2)[C@@H]2CC(C)(C)OC[C@]32C)cc1F
4. CN1CC2(C1)CN(c1ccc(Nc3ncc4c(n3)N(c3cccc(N5CCOC5=O)n3)[C@@H]3CC(C)(C)OC[C@]43C)cc1)C2
5. C[C@H]1CCC(=O)N1c1cccc(N2c3nc(Nc4cnn(C5CCN(C)CC5)c4)ncc3C3(C)COC(C)(C)CC23)n1 (stereo in doubt) [Example 556]

1: < 10 nM; 2: ≥ 1000 nM; 3: < 10 nM; 4: < 10 nM; 5: < 10 nM

Would you mind listing IC50 for each of the following compounds?
1. COc1cccc(N2c3nc(Nc4ccc(N5CCN(C)CC5)cc4)ncc3[C@@]3(C)COC(C)(C)C[C@@H]23)n1 (single isomer, unassigned)
2. CN1CC[C@@](C)(c2ccc(Nc3ncc4c(n3)N(c3cccc(N5CCOC5=O)n3)[C@H]3CC(C)(C)OC[C@@]43C)cc2)C1

1. < 10 nM
2. 10 to 100 nM

---

target: Wee1 kinase domain (Homo sapiens); construct: Wee1 kinase domain was purchased from Carna (catalog #05-177); purchased Carna 05-177; assay: Wee1 Kinase Biochemical Assay (ADP-Glo); details: class symbols; 1 nM Wee1 enzyme, 15 uM ATP, 4 hours at 25° C.
For each entry below, report its IC50 value.

Examples with answers:
CN[C@@H](C)c1cccc(N2c3nc(Nc4ccc(N5CCOCC5)cc4)ncc3[C@@]3(C)COC(C)(C)C[C@@H]23)n1 (single isomer, unassigned) = < 10 nM
CC1(C)C[C@H]2N(c3cccc([C@H]4CNCCO4)n3)c3nc(Nc4ccc(N5CCOCC5)cc4)ncc3[C@@]2(C)CO1 = < 10 nM

Let us move to another entry and its IC50.
CC1(C)C[C@@H]2N(c3cccc([C@H]4CCNC4)n3)c3nc(Nc4ccc(N5CCOCC5)cc4)ncc3[C@]2(C)CO1 (single isomer, unassigned) [Example 541] tested on Wee1 kinase domain (Homo sapiens) gave IC50: 100 to 1000 nM

---

For each entry below, report its pIC50 value.
molecular target: Wee1 kinase domain (Homo sapiens, UniProt P30291); construct: Wee1 kinase domain was purchased from Carna (catalog #05-177); purchased Carna 05-177; experiment: Wee1 Kinase Biochemical Assay (ADP-Glo); conditions: Wee1 kinase domain, 15 uM ATP, ADP-Glo
pIC50: −log10 of the molar value.

CNCc1cccc(N2c3nc(Nc4ccc(C(C)(C)C)cc4)ncc3[C@@]3(C)COC(C)(C)C[C@@H]23)n1 (single isomer, unassigned) [Example 73] = > 8.00
Cc1ccc(Nc2ncc3c(n2)N(c2cccc(N=S(C)(C)=O)n2)[C@@H]2CC(C)(C)OC[C@]32C)nn1 (single isomer, unassigned) [Example 364] = > 8.00
CC1(C)C[C@H]2N(c3cccc(N=S(C)(C)=O)n3)c3nc(Nc4ccc([C@@H]5CCNC5)cc4)ncc3[C@@]2(C)CO1 (single isomer, unassigned) [Example 131] = > 8.00
C[C@H]1COC(=O)N1c1cccc(N2c3nc(Nc4ccc(O[C@@H]5CCN(C)C5)cc4)ncc3[C@]3(C)COC(C)(C)C[C@H]23)n1 (single isomer, unassigned) [Example 330] = 7.00 to 8.00

Let us move to another entry and its pIC50.
Cc1cnc(Nc2ncc3c(n2)N(c2cccc(N=S(C)(C)=O)n2)[C@@H]2CC(C)(C)OC[C@]32C)cn1 (single isomer, unassigned) [Example 371] has a reported pIC50 of > 8.00

---

target: Wee1 kinase domain (Homo sapiens); construct: Wee1 kinase domain was purchased from Carna (catalog #05-177); purchased Carna 05-177; experiment: Wee1 Kinase Biochemical Assay (ADP-Glo); conditions: class symbols; 1 nM Wee1 enzyme, 15 uM ATP, 4 hours at 25° C.
pIC50: −log10 of the molar value.
For each entry below, report its pIC50 value.

CN1C[C@H]2C[C@@H]1CN2c1ccc(Nc2ncc3c(n2)N(c2cccc(C(C)(C)O)n2)[C@H]2CC(C)(C)OC[C@@]32C)cc1F (single isomer, unassigned) = 6.00 to 7.00
CC1(C)C[C@@H]2N(c3cccc(N4CCCC4=O)n3)c3nc(Nc4ccc(C5CNC5)cc4)ncc3[C@]2(C)CO1 = 7.00 to 8.00
CNCc1cccc(N2c3nc(Nc4cnnc(C)c4)ncc3[C@]3(C)COC(C)(C)C[C@H]23)n1 (single isomer, unassigned) = 6.00 to 7.00
CN1CC[C@@H](Oc2ccc(Nc3ncc4c(n3)N(c3cccc(N5CCCC5=O)n3)[C@H]3CC(C)(C)OC[C@@]43C)cc2)C1 = 7.00 to 8.00
CC1(C)C[C@H]2N(c3cccc(N=S(C)(C)=O)n3)c3nc(NC(=O)C4CC4)ncc3[C@@]2(C)CO1 (single isomer, unassigned) = > 8.00

Would you mind listing pIC50 for each of the following compounds?
1. CC1(C)C[C@H]2N(c3cccc(N=S(C)(C)=O)n3)c3nc(Nc4cnn(C(F)F)c4)ncc3[C@@]2(C)CO1 (single isomer, unassigned)
2. CC1(C)C[C@@H]2N(c3cccc(C(C)(C)N)n3)c3nc(Nc4ccc(N5CCOCC5)cc4)ncc3[C@]2(C)CO1 (single isomer, unassigned)

["> 8.00", "7.00 to 8.00"]

Would you mind listing pIC50 for each of the following compounds?
1. CC1(C)C[C@H]2N(c3cccc(N=S(C)(C)=O)n3)c3nc(NC(=O)c4ccccn4)ncc3[C@@]2(C)CO1 (single isomer, unassigned)
2. CN1CC[C@@H](n2ccc(Nc3ncc4c(n3)N(c3cccc(N=S(C)(C)=O)n3)[C@@H]3CC(C)(C)OC[C@]43C)cc2=O)C1
3. CN1CCN(c2ccc(Nc3ncc4c(n3)N(c3cccc(P(C)(C)=O)n3)[C@@H]3CC(C)(C)OC[C@]43C)cc2)CC1 (single isomer, unassigned)
4. CC1(C)C[C@H]2N(c3cccc(N=S(C)(C)=O)n3)c3nc(Nc4cnn(C(F)(F)F)c4)ncc3[C@@]2(C)CO1 (single isomer, unassigned)
5. CNCc1cccc(N2c3nc(NC(=O)[C@@H]4C[C@H]4c4ccccc4)ncc3[C@@]3(C)COC(C)(C)C[C@@H]23)n1
6. CNCc1cccc(N2c3nc(Nc4ccc(N5CCOC[C@@H]5C)cc4)ncc3[C@]3(C)COC(C)(C)C[C@H]23)n1 (single isomer, unassigned)
7. CN1CC2(C1)CN(c1ccc(Nc3ncc4c(n3)N(c3cccc(C(C)(C)O)n3)[C@@H]3CC(C)(C)OC[C@]43C)cc1)C2 (single isomer, unassigned)
8. C[C@H]1CCC(=O)N1c1cccc(N2c3nc(Nc4ccc(N5CCN(C)CC5)cc4)ncc3[C@@]3(C)COC(C)(C)C[C@@H]23)n1 (single isomer, unassigned)

1: 7.00 to 8.00; 2: > 8.00; 3: > 8.00; 4: > 8.00; 5: > 8.00; 6: 6.00 to 7.00; 7: > 8.00; 8: > 8.00

Would you mind listing pIC50 for each of the following compounds?
1. CNCc1cccc(N2c3nc(Nc4ccc(-c5cnn(C)c5)c(C)c4)ncc3[C@]3(C)COC(C)(C)C[C@H]23)n1 (single isomer, unassigned)
2. CC1(C)C[C@@H]2N(c3ccc4c(n3)[C@@](C)(N)CC4)c3nc(Nc4ccc(N5CCOCC5)cc4)ncc3[C@]2(C)CO1 (single isomer, unassigned)

1. 6.00 to 7.00
2. ≤ 6.00

Would you mind listing pIC50 for each of the following compounds?
1. Cc1cc(Nc2ncc3c(n2)N(c2cccc(N4CCCC4=O)n2)[C@H]2CC(C)(C)OC[C@@]32C)ccc1N1C[C@H]2C[C@@H]1CN2C
2. CC1(C)C[C@@H]2N(c3cccc([C@@H]4CCCN4)n3)c3nc(Nc4ccc(N5CCOCC5)cc4)ncc3[C@]2(C)CO1 (single isomer, unassigned)
3. Cc1cccc(N2c3nc(Nc4ccc(N5CCN(C)CC5)cc4)ncc3[C@@]3(C)COC(C)(C)C[C@@H]23)n1 (single isomer, unassigned)

1: 7.00 to 8.00; 2: 6.00 to 7.00; 3: > 8.00

Would you mind listing pIC50 for each of the following compounds?
1. Cc1cc(Nc2ncc3c(n2)N(c2cccc([C@@H]4CCCN4)n2)[C@H]2CC(C)(C)OC[C@@]32C)ccc1N1CCOCC1 (single isomer, unassigned)
2. C[C@H]1CCC(=O)N1c1cccc(N2c3nc(Nc4ccc(N5CCN(C)CC5)cc4)ncc3[C@]3(C)COC(C)(C)C[C@H]23)n1 (single isomer, unassigned)

1: 7.00 to 8.00; 2: 6.00 to 7.00
